The measured values listed here are drawn from patent US8722703B2.

assay: PK profile of compound 15 after oral 30 mg/kg, single dose study; format: in vivo, mice; details: female, athymic nude (CD-1 nu/nu), mouse, plasma
resultType: half-life (h)
Field: numeric (h). Do not append units.

Provide half-life value for the following molecule: CN(C)c1cc2c(cc1Sc1nc3c(N)nccc3n1CCNCC(C)(C)C)OCO2
3.3

----------
test: PK in mouse brain after i.v. and oral delivery, cassette study in HCT116 tumor-bearing mice; format: in vivo; settings: female, athymic nude (CD-1 nu/nu), mouse, iv, i.v. delivery (Cassette Study), Time 0.5 hr, read-out: HSP90 Compounds in Mouse Brain
resultType: concentration at 0.5 hr (ng/g)
Field: numeric (ng/g). Do not append units.

Provide concentration at 0.5 hr value for the following compound: CN(C)c1cc2c(cc1Sc1nc3c(N)nccc3n1CCNCC(C)(C)C)OCO2 [Compound 15]
1450

----------
assay: PK in mouse brain after i.v. and oral delivery, cassette study in HCT116 tumor-bearing mice; format: in vivo; conditions: female, athymic nude (CD-1 nu/nu), mouse, iv, i.v. delivery (Cassette Study), Time 6 hr, read-out: HSP90 Compounds in Mouse Brain
resultType: concentration at 6 hr (ng/g)
Field: numeric (ng/g). Do not append units.

Provide concentration at 6 hr value for the following molecule: CN(C)c1cc2c(cc1Sc1nc3c(N)nccc3n1CCNCC(C)(C)C)OCO2
177

----------
assay: PK in mouse brain after i.v. and oral delivery, cassette study in HCT116 tumor-bearing mice; assay type: in vivo; details: female, athymic nude (CD-1 nu/nu), mouse, iv, i.v. delivery (Cassette Study), Time 24 hr, read-out: HSP90 Compounds in Mouse Brain
resultType: concentration at 24 hr (ng/g)
Field: numeric (ng/g). Do not append units.

Provide concentration at 24 hr value for the following compound: CN(C)c1cc2c(cc1Sc1nc3c(N)nccc3n1CCNCC(C)(C)C)OCO2
27

----------
test: PK profile of compound 15 after oral 30 mg/kg, single dose study; assay type: in vivo, mice; conditions: female, athymic nude (CD-1 nu/nu), mouse, plasma
resultType: AUC(0-inf) (ng·h/mL)
Field: numeric (ng·h/mL). Do not append units.

Provide AUC(0-inf) value for the following compound: CN(C)c1cc2c(cc1Sc1nc3c(N)nccc3n1CCNCC(C)(C)C)OCO2
10500

----------
Quick reference: concentration at 0.5 hr of the listed items.
test: Mouse brain concentrations after oral 30 mg/Kg in nude mice with U87MG xenografts; format: in vivo; conditions: female, athymic nude (CD-1 nu/nu), mouse, brain; oral (30 mg/Kg) delivery, U87MG xenografts, Time 0.5 hr; read-out: HSP90 Compounds in Mouse Brain
Your answer should be a number followed by the unit of measure.

Provide concentration at 0.5 hr value for the following molecule: NC(=O)CCCn1c(Sc2cc3c(cc2I)OCO3)nc2c(N)nccc21
2.5 ng/g

Provide concentration at 0.5 hr value for the following molecule: CN(C)c1cc2c(cc1Sc1nc3c(N)nccc3n1CCNCC(C)(C)C)OCO2
66.4 ng/g

Provide concentration at 0.5 hr value for the following molecule: CC(C)(C)CNCCn1c(Sc2cc3c(cc2S(C)(=O)=O)OCO3)nc2c(N)nccc21
5.4 ng/g
